Tested on: ATP;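 further: ATP exposure 15 min at 22 °C before imaging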
Test: switch fluorescence ratio, 500 uM ATP over buffer (Cy3 cluster intensity, sum of 5 cycles each) (fold (ratio)); higher = stronger signal-on switching upon ATP binding; sequences stand for … in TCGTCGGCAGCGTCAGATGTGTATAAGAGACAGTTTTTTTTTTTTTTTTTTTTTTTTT…TC
Conditions: aptamer strand: ATP DNA aptamer (quencher-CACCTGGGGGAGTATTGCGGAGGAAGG + anchor), 100 nM annealed; ATP concentration: 500 uM
READOUT_TYPE: switch fluorescence ratio
Respond numerically, and do not add a unit to the figure.

>>> result_number("GCTAAAATTT")
1

Please give the documented switch fluorescence ratio of TATGGTGGGG 0.986

Please give the documented switch fluorescence ratio of GAAGGGAGCA 1.02

Please give the documented switch fluorescence ratio of GCTTTAAGTA 0.992

Please give the documented switch fluorescence ratio of TCATGGAGGT 0.96

Please give the documented switch fluorescence ratio of TGCAGGGCGG 0.981

Please give the documented switch fluorescence ratio of AGGGAGAGTT 1.02

###

# maps each entry to its switch fluorescence ratio
Test system: ATP;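 further: ATP exposure 15 min at 22 °C before imaging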
Assay: switch fluorescence ratio, 500 uM ATP over buffer (Cy3 cluster intensity, sum of 5 cycles each) (fold (ratio)); higher = stronger signal-on switching upon ATP binding; sequences stand for … in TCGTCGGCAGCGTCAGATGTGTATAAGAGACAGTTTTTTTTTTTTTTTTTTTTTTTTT…TC
Conditions: aptamer strand: ATP DNA aptamer (quencher-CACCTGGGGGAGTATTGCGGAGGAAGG + anchor), 100 nM annealed; ATP concentration: 500 uM

>>> result("ACTGTTAGTA")
1.01
>>> result("GGTTGTTTGG")
0.989
>>> result("GGTTGCAAGC")
1.05
>>> result("TAAAAACGTT")
1.07

Alright, here's another sequence for you.
Please give the documented switch fluorescence ratio of TAGACTTTAT 1.02

###

System: ATP;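 further: ATP exposure 15 min at 22 °C before imaging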
Assay: switch fluorescence ratio, 500 uM ATP over buffer (Cy3 cluster intensity, sum of 5 cycles each) (fold (ratio)); higher = stronger signal-on switching upon ATP binding; sequences stand for … in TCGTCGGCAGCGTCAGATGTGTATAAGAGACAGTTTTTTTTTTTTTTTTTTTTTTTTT…TC
Conditions: aptamer strand: ATP DNA aptamer (quencher-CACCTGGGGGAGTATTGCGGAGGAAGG + anchor), 100 nM annealed; ATP concentration: 500 uM
Lab note: anything with switch fluorescence ratio at or over 1 counts as Condition met; the rest go in Condition not met.

Solved entries:
>>> classification("AACTTTCCGA")
"Condition met"
>>> classification("TCGGGATACG")
"Condition met"
>>> classification("ACGGGATTAA")
"Condition met"
>>> classification("TAGCGATGCG")
"Condition met"
>>> classification("TCGATGTGTT")
"Condition not met"
>>> classification("GTCCAAAAAC")
"Condition met"
>>> classification("TTGTTGGCGA")
"Condition met"
>>> classification("AATACTGTGC")
"Condition not met"
>>> classification("TTTAATCGAG")
"Condition met"
>>> classification("CCGAGATCTT")
"Condition met"

Does the reported switch fluorescence ratio for TTCAGCAGAG fall at or above the 1 mark? Condition met

Does the reported switch fluorescence ratio for TAATACCCCG fall at or above the 1 mark? Condition met

Does the reported switch fluorescence ratio for ATCATCTGAC fall at or above the 1 mark? Condition met

Does the reported switch fluorescence ratio for CCAGCGGGGC fall at or above the 1 mark? Condition met

Does the reported switch fluorescence ratio for CTCCTGGACT fall at or above the 1 mark? Condition met

Does the reported switch fluorescence ratio for ACATCTCGTT fall at or above the 1 mark? Condition not met

Does the reported switch fluorescence ratio for CCGGGAAGGG fall at or above the 1 mark? Condition met

Does the reported switch fluorescence ratio for CGGATATATA fall at or above the 1 mark? Condition met

Does the reported switch fluorescence ratio for GCTAGGTGTA fall at or above the 1 mark? Condition met

Does the reported switch fluorescence ratio for GTTCGGGCTC fall at or above the 1 mark? Condition met

Does the reported switch fluorescence ratio for CGCATTTAGT fall at or above the 1 mark? Condition met

Does the reported switch fluorescence ratio for TTTTTCGATA fall at or above the 1 mark? Condition met

Does the reported switch fluorescence ratio for TTTGCTGGTC fall at or above the 1 mark? Condition met

###

Tested on: ATP;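 further: ATP exposure 15 min at 22 °C before imaging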
Assay: switch fluorescence ratio, 500 uM ATP over buffer (Cy3 cluster intensity, sum of 5 cycles each) (fold (ratio)); higher = stronger signal-on switching upon ATP binding; sequences stand for … in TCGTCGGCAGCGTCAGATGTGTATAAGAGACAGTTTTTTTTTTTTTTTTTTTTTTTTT…TC
Details: aptamer strand: ATP DNA aptamer (quencher-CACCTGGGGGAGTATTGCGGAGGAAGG + anchor), 100 nM annealed; ATP concentration: 500 uM
Lab note: anything with switch fluorescence ratio at or over 1 counts as Met; the rest go in Not met.

Solved entries:
>>> classification("TAGAAAGCCT")
"Met"
>>> classification("CCTGGCGCTT")
"Met"
>>> classification("GGGGACCGCG")
"Not met"
>>> classification("AATTTTTATT")
"Met"
>>> classification("GTAGTAGCGT")
"Not met"

Does the reported switch fluorescence ratio for CAGAGGTGCG fall at or above the 1 mark? Not met

###

# maps each entry to its switch fluorescence ratio
Test system: ATP;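 further: ATP exposure 15 min at 22 °C before imaging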
Assay: switch fluorescence ratio, 500 uM ATP over buffer (Cy3 cluster intensity, sum of 5 cycles each) (fold (ratio)); higher = stronger signal-on switching upon ATP binding; sequences stand for … in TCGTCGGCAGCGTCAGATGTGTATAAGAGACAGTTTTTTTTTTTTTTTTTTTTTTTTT…TC
Settings: aptamer strand: ATP DNA aptamer (quencher-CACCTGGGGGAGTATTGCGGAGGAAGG + anchor), 100 nM annealed; ATP concentration: 500 uM

Use these answered entries as a reference point.
>>> result("TGAAACGTAT")
0.993
>>> result("GTGGGAGGCT")
1
>>> result("GATATATGCT")
1
>>> result("TTTAGTTGCC")
0.984
>>> result("GCTGGGGGAG")
0.982

Please give the documented switch fluorescence ratio of CTATGGAGTG 0.993

Please give the documented switch fluorescence ratio of TGCAGTAAGG 0.978

Please give the documented switch fluorescence ratio of TTTCGTTGCT 0.994

Please give the documented switch fluorescence ratio of TGAAGGTCGT 0.99

Please give the documented switch fluorescence ratio of GAAATTTAAG 1.02

Please give the documented switch fluorescence ratio of GGTTGTTGAG 0.987

Please give the documented switch fluorescence ratio of TGTTTGGTTA 0.995

###

Tested on: ATP;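 further: ATP exposure 15 min at 22 °C before imaging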
Experiment: switch fluorescence ratio, 500 uM ATP over buffer (Cy3 cluster intensity, sum of 5 cycles each) (fold (ratio)); higher = stronger signal-on switching upon ATP binding; sequences stand for … in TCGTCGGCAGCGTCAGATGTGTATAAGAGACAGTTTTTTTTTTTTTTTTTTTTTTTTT…TC
Settings: aptamer strand: ATP DNA aptamer (quencher-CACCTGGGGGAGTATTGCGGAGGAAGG + anchor), 100 nM annealed; ATP concentration: 500 uM
READOUT_TYPE: switch fluorescence ratio
Respond numerically, and do not add a unit to the figure.

Use these answered entries as a reference point.
>>> result_number("ACCGGCCCGG")
0.985
>>> result_number("AAGGGGTGTA")
0.985
>>> result_number("TTATAGAATG")
0.985

Alright, here's another sequence for you.
Please give the documented switch fluorescence ratio of TCCCTTAGAG 1.04

###

# maps each entry to its switch fluorescence ratio
System: ATP;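 further: ATP exposure 15 min at 22 °C before imaging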
Experiment: switch fluorescence ratio, 500 uM ATP over buffer (Cy3 cluster intensity, sum of 5 cycles each) (fold (ratio)); higher = stronger signal-on switching upon ATP binding; sequences stand for … in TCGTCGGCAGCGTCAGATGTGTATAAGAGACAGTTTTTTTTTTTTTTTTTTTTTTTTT…TC
Settings: aptamer strand: ATP DNA aptamer (quencher-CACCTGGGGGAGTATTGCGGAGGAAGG + anchor), 100 nM annealed; ATP concentration: 500 uM
Respond numerically, and do not add a unit to the figure.

>>> result_number("ACTGGCGGCG")
1
>>> result_number("ACGGGCGGTC")
1.01
>>> result_number("TTAATCCCGT")
1.04
>>> result_number("ATTCTATATC")
0.97
>>> result_number("ACTGGGGAGG")
1.01

Would you please give the reported switch fluorescence ratio of GGTGGGGTGT with ATP? 0.982

Would you please give the reported switch fluorescence ratio of TGGTAGTGCT with ATP? 1.01

Would you please give the reported switch fluorescence ratio of GGAAGGTTTT with ATP? 0.977

Would you please give the reported switch fluorescence ratio of TTAGCGGCAG with ATP? 0.988

Would you please give the reported switch fluorescence ratio of TTTAGAGGGG with ATP? 1.02
